Target: GPCR GPR40 (Rattus norvegicus, UniProt Q8K3T4)
Sequence (Q8K3T4 whole entry): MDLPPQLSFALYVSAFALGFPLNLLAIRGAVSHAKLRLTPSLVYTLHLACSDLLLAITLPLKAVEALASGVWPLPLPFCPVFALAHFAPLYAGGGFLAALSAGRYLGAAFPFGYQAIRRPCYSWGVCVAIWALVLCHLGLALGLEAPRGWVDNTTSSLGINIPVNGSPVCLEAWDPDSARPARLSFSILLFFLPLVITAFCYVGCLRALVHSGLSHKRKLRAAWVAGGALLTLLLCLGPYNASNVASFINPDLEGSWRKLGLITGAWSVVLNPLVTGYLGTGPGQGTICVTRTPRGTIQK
Test: In vitro FLIPR assay with recombinant cells which express the GPCR GPR40
Settings: recombinant HEK293 cells expressing rat GPR40; agonist-induced change in intracellular Ca2+ (Fluo-4, FLIPR); 100% = 10 μM linoleic acid
Experimental: In Vitro FLIPR Assay with Recombinant Cells which Express the GPCR GPR40 Function-testing assays were performed by means of the FLIPR technique (“Fluorescence Imaging Plate Reader”, Molecular Devices Corp.). To this end, agonist-induced changes in the intracellular concentration of Ca^2+ were determined in recombinant HEK293 cells which expressed the GPCR GPR40 (species: rat). For the studies, cells were sown into 96-well microtiter plates (60 000 cells/well) and left to grow overnight. […]
reported property: pEC50
Please treat pEC50 as minus the base-10 logarithm of the molar concentration.

Would you please look over these solved cases?
[
  {
    "compound": "CC#CC(CC(=O)O)c1ccc(OCCCOc2cc(C(F)(F)F)cc(C(F)(F)F)c2)cc1 (stereo not shown)",
    "pEC50": 6.40
  },
  {
    "compound": "CC#CC(CC(=O)O)c1ccc(OCC(C)COc2cc(C)ccc2C(C)C)cc1 (stereo not shown)",
    "pEC50": 5.80
  },
  {
    "compound": "CC#CC(CC(=O)O)c1ccc(OCC(C)COc2ccccc2C(F)(F)F)cc1 (stereo not shown)",
    "pEC50": 6.14
  }
]

Turning to the following compound.
So what does the record say about pEC50 for CC#CC(CC(=O)O)c1ccc(OCCCOc2cccc(C(F)(F)F)c2Cl)cc1 (stereo not shown) ?
6.14

---

target: GPCR GPR40 (Rattus norvegicus); assay: In vitro FLIPR assay with recombinant cells which express the GPCR GPR40; conditions: recombinant HEK293 cells expressing rat GPR40; agonist-induced change in intracellular Ca2+ (Fluo-4, FLIPR); 100% = 10 μM linoleic acid
// returns no (0) unless EC50 is strictly below 80 nM, in which case yes (1)

Answered cases to consult:
[
  {
    "compound": "CC#CC(CC(=O)O)c1ccc(OCC(C)COc2ccc(C(C)(C)C)cc2Cl)cc1 (centres unmarked)",
    "cat": "no (0)"
  },
  {
    "compound": "CC#CC(CC(=O)O)c1ccc(OC(C)CCOc2ccc(C(F)(F)F)cc2)cc1 (centres unmarked)",
    "cat": "no (0)"
  },
  {
    "compound": "CC#CC(CC(=O)O)c1ccc(OCC(CC)COc2ccc(C(F)(F)F)cc2)cc1 (centres unmarked)",
    "cat": "no (0)"
  },
  {
    "compound": "CC#CC(CC(=O)O)c1ccc(OCCOc2cccc(C(C)(C)C)c2)cc1 (centres unmarked)",
    "cat": "yes (1)"
  },
  {
    "compound": "CC#CC(CC(=O)O)c1ccc(OCC[C@@H](C)Oc2cccc(C)c2)cc1 (some centres unmarked)",
    "cat": "yes (1)"
  },
  {
    "compound": "CC#CC(CC(=O)O)c1ccc(OCCOc2ccccc2F)cc1 (centres unmarked)",
    "cat": "no (0)"
  },
  {
    "compound": "CC#CC(CC(=O)O)c1ccc(OCC(COc2ccc(C(F)(F)F)cc2)c2ccccc2)cc1 (centres unmarked)",
    "cat": "no (0)"
  },
  {
    "compound": "CC#CC(CC(=O)O)c1ccc(OCC[C@H](C)Oc2ccccc2C(F)(F)F)cc1 (some centres unmarked)",
    "cat": "no (0)"
  }
]

Take the compound CC#CC(CC(=O)O)c1ccc(OCCCOc2ccc(C(F)(F)F)cc2Cl)cc1 (centres unmarked) and say whether its EC50 is less than 80 nM.
no (0)

Take the compound CC#CC(CC(=O)O)c1ccc(OCCOc2cccc(C)c2)cc1 (centres unmarked) and say whether its EC50 is less than 80 nM.
yes (1)

Take the compound CC#CC(CC(=O)O)c1ccc(OCCCOc2cccc(C)c2)cc1 (centres unmarked) and say whether its EC50 is less than 80 nM.
yes (1)

Take the compound CC#CC(CC(=O)O)c1ccc(OCCCOc2cc(C(F)(F)F)ccc2Cl)cc1 (centres unmarked) and say whether its EC50 is less than 80 nM.
no (0)

Take the compound CC#CC(CC(=O)O)c1ccc(OCC(O)COc2ccc(C(F)(F)F)cc2Cl)cc1 (centres unmarked) and say whether its EC50 is less than 80 nM.
no (0)
